Value source: patent US20120220581A1

List of IC50 values.
system_name: other members of the PDE family (Homo sapiens, UniProt O00408)
Sequence (O00408 whole entry): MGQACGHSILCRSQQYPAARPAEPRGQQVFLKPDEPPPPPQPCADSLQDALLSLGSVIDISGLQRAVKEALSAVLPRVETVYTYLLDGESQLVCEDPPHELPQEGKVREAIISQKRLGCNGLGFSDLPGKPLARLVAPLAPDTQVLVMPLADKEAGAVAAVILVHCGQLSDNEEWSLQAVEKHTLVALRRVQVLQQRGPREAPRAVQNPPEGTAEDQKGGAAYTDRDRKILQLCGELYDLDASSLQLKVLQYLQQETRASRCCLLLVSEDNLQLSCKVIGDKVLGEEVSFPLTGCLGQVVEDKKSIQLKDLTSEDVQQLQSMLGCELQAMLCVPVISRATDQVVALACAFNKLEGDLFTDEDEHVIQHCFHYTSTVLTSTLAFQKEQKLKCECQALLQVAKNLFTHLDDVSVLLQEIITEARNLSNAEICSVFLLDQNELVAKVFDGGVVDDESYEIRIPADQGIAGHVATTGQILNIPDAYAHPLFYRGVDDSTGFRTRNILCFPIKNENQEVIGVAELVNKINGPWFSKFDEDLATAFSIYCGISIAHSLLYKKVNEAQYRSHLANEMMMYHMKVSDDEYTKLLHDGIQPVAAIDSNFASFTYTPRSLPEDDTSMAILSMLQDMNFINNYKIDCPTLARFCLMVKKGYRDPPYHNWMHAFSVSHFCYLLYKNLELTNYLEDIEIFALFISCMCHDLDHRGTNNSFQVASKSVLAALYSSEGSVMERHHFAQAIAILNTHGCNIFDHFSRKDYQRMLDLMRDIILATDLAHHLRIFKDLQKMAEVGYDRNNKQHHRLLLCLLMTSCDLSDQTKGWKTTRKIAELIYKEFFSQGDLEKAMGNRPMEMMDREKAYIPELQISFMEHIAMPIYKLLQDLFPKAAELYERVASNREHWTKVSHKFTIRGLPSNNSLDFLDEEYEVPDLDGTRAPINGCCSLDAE
test_method_notes: In vitro PDE selectivity assay (SPA), other members of the PDE family (protocols in Table A)
Assay type: biochemical
assay_conditions: hPDE2A; read-out: PDE 2A (expressed as pIC50) (converted)
Method: Rat recombinant PDE10A (rPDE10A2) was expressed in Sf9 cells using a recombinant rPDE10A baculovirus construct. Cells were harvested after 48 h of infection and the rPDE10A protein was purified by metal chelate chromatography on Ni-sepharose 6FF. […] After sedimentation of the beads during 30 minutes the radioactivity was measured in a Perkin Elmer Topcount scintillation counter and results were expressed as cpm. […]
Entry rule: numbers only, all in µM.

COCCn1cc(-c2c(C3CC3)nc3c(-c4ccncc4)ccnn23)cn1 [compound 142] ... 5.5

What IC50 value was documented for this compound, COCCc1ccc(-c2c(C3CC3)nc3c(N4CCOCC4)ccnn23)cn1 [compound 22] ?
5.89
